# target.entity: hCA II (Homo sapiens)
Some compounds, each annotated with its measured pIC50.
API: returns pIC50 as number; meaning -log10 of concentration in mol/L.

Use these answered entries as a reference point.
compound | pIC50
CCn1c(N)c(/N=C/c2cc3cccc(C)c3[nH]c2=O)c(=O)[nH]c1=O [Compound 10f] | 6.10
CCn1c(N)c(/N=C/c2cc3ccccc3[nH]c2=O)c(=O)[nH]c1=O [Compound 10c] | 6.18
COc1ccc2[nH]c(=O)c(/C=N/c3c(N)n(C)c(=O)[nH]c3=O)cc2c1 [Compound 10k] | 5.18

Next compound, please.
### Prompt Param readout = pIC50; param system = hCA II (Homo sapiens); param query = COc1ccc2[nH]c(=O)c(/C=N/c3c(N)n(Cc4ccccc4)c(=O)[nH]c3=O)cc2c1 [Compound 10i] ; response: value
### Response 5.97

----------
# target.entity: hCA IX (Homo sapiens, UniProt Q16790)
# protocol.details: Carbonic anhydrase inhibition, colorimetric method (BioVision CA Inhibitor Screening Kit)
# setup.conditions: hCA IX over hCA I
assay.readout: Selectivity index I/IX
Give the figure by itself; no unit, no explanation.

compound | target.entity | reading
COc1ccc2[nH]c(=O)c(/C=N/c3c(N)n(C)c(=O)[nH]c3=O)cc2c1 [Compound 10k] | hCA IX (Homo sapiens, UniProt Q16790) | 1.66
Nc1c(/N=C/c2cc3ccccc3[nH]c2=O)c(=O)[nH]c(=O)n1Cc1ccccc1 [Compound 10b] | hCA IX (Homo sapiens, UniProt Q16790) | 1.60

### Prompt Param readout = Selectivity index I/IX; param system = hCA IX (Homo sapiens, UniProt Q16790); param query = COc1ccc2[nH]c(=O)c(/C=N/c3c(N)n(C)c(=S)[nH]c3=O)cc2c1 [Compound 10l] ; response: value
### Response 1.75

### Prompt Param readout = Selectivity index I/IX; param system = hCA IX (Homo sapiens, UniProt Q16790); param query = CCn1c(N)c(/N=C/c2cc3cc(OC)ccc3[nH]c2=O)c(=O)[nH]c1=O [Compound 10j] ; response: value
### Response 1.02

----------
Some compounds, each annotated with its measured Selectivity index I/IX.
# target.entity: hCA IX (Homo sapiens)
# protocol.details: Carbonic anhydrase inhibition, colorimetric method (BioVision CA Inhibitor Screening Kit)
# setup.conditions: hCA IX over hCA I
Give the figure by itself; no unit, no explanation.

Use these answered entries as a reference point.
compound | Selectivity index I/IX
CCn1c(N)c(/N=C/c2cc3cccc(C)c3[nH]c2=O)c(=O)[nH]c1=O [Compound 10f] | 1.23
Cn1c(N)c(/N=C/c2cc3ccccc3[nH]c2=O)c(=O)[nH]c1=S [Compound 10e] | 0.91
COc1ccc2[nH]c(=O)c(/C=N/c3c(N)n(Cc4ccccc4)c(=O)[nH]c3=O)cc2c1 [Compound 10i] | 2.31
COc1ccc2[nH]c(=O)c(/C=N/c3c(N)[nH]c(=O)[nH]c3=O)cc2c1 [Compound 10h] | 5.39

### Prompt Any idea what Selectivity index I/IX was measured for CCn1c(N)c(/N=C/c2cc3ccccc3[nH]c2=O)c(=O)[nH]c1=O [Compound 10c] ?
### Response 4.37

### Prompt Any idea what Selectivity index I/IX was measured for Nc1[nH]c(=O)[nH]c(=O)c1/N=C/c1cc2ccccc2[nH]c1=O [Compound 10a] ?
### Response 3.88

### Prompt Any idea what Selectivity index I/IX was measured for Cn1c(N)c(/N=C/c2cc3ccccc3[nH]c2=O)c(=O)[nH]c1=O [Compound 10d] ?
### Response 1.09

### Prompt Any idea what Selectivity index I/IX was measured for Cc1cccc2cc(/C=N/c3c(N)n(C)c(=S)[nH]c3=O)c(=O)[nH]c12 [Compound 10g] ?
### Response 1.99

----------
assay.readout: melting point

Use these answered entries as a reference point.
compound | reading
Nc1[nH]c(=O)[nH]c(=O)c1/N=C/c1cc2ccccc2[nH]c1=O [Compound 10a] | 270 to 272 °C
Cn1c(N)c(/N=C/c2cc3ccccc3[nH]c2=O)c(=O)[nH]c1=S [Compound 10e] | 284 to 286 °C
COc1ccc2[nH]c(=O)c(/C=N/c3c(N)n(Cc4ccccc4)c(=O)[nH]c3=O)cc2c1 [Compound 10i] | 291 to 293 °C
COc1ccc2[nH]c(=O)c(/C=N/c3c(N)n(C)c(=S)[nH]c3=O)cc2c1 [Compound 10l] | 295 to 297 °C
COc1ccc2[nH]c(=O)c(/C=N/c3c(N)n(C)c(=O)[nH]c3=O)cc2c1 [Compound 10k] | 293 to 295 °C
CCn1c(N)c(/N=C/c2cc3cc(OC)ccc3[nH]c2=O)c(=O)[nH]c1=O [Compound 10j] | 287 to 289 °C

### Prompt Any idea what melting point was measured for Nc1c(/N=C/c2cc3ccccc3[nH]c2=O)c(=O)[nH]c(=O)n1Cc1ccccc1 [Compound 10b] ?
### Response 280 to 282 °C

### Prompt Any idea what melting point was measured for CCn1c(N)c(/N=C/c2cc3cccc(C)c3[nH]c2=O)c(=O)[nH]c1=O [Compound 10f] ?
### Response 278 to 280 °C

### Prompt Any idea what melting point was measured for Cn1c(N)c(/N=C/c2cc3ccccc3[nH]c2=O)c(=O)[nH]c1=O [Compound 10d] ?
### Response 298 to 300 °C

### Prompt Any idea what melting point was measured for CCn1c(N)c(/N=C/c2cc3ccccc3[nH]c2=O)c(=O)[nH]c1=O [Compound 10c] ?
### Response 290 to 292 °C

### Prompt Any idea what melting point was measured for COc1ccc2[nH]c(=O)c(/C=N/c3c(N)[nH]c(=O)[nH]c3=O)cc2c1 [Compound 10h] ?
### Response 275 to 277 °C

### Prompt Any idea what melting point was measured for Cc1cccc2cc(/C=N/c3c(N)n(C)c(=S)[nH]c3=O)c(=O)[nH]c12 [Compound 10g] ?
### Response 265 to 267 °C

----------
# target.entity: hCA XII (Homo sapiens, UniProt O43570)
# Sequence (O43570 25-354): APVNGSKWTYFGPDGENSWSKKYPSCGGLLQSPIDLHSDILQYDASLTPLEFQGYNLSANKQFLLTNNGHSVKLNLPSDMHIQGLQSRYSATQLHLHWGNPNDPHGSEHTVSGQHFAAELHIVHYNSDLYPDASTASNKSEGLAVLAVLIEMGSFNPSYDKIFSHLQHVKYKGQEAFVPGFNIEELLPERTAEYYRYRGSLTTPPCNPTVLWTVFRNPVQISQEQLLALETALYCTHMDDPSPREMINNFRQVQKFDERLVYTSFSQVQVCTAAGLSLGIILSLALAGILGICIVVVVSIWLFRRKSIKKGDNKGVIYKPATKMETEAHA
# protocol.details: Carbonic anhydrase inhibition, colorimetric method (BioVision CA Inhibitor Screening Kit)
# setup.conditions: hCA XII over hCA I
assay.readout: Selectivity index I/XII
Give the figure by itself; no unit, no explanation.

compound | assay.readout | reading
CCn1c(N)c(/N=C/c2cc3cccc(C)c3[nH]c2=O)c(=O)[nH]c1=O [Compound 10f] | Selectivity index I/XII | 1.95
CCn1c(N)c(/N=C/c2cc3ccccc3[nH]c2=O)c(=O)[nH]c1=O [Compound 10c] | Selectivity index I/XII | 3.62
Cn1c(N)c(/N=C/c2cc3ccccc3[nH]c2=O)c(=O)[nH]c1=S [Compound 10e] | Selectivity index I/XII | 2.12

### Prompt Any idea what Selectivity index I/XII was measured for Cn1c(N)c(/N=C/c2cc3ccccc3[nH]c2=O)c(=O)[nH]c1=O [Compound 10d] ?
### Response 1.24

----------
# target.entity: UniProt Q16790
# protocol.details: Carbonic anhydrase inhibition, colorimetric method (BioVision CA Inhibitor Screening Kit)
Some compounds, each annotated with its measured pKi.
API: returns pKi as number; meaning -log10 of concentration in mol/L.

Use these answered entries as a reference point.
compound | pKi
Cc1cccc2cc(/C=N/c3c(N)n(C)c(=S)[nH]c3=O)c(=O)[nH]c12 [Compound 10g] | 6.22
COc1ccc2[nH]c(=O)c(/C=N/c3c(N)[nH]c(=O)[nH]c3=O)cc2c1 [Compound 10h] | 6.48
Nc1[nH]c(=O)[nH]c(=O)c1/N=C/c1cc2ccccc2[nH]c1=O [Compound 10a] | 6.85
Nc1c(/N=C/c2cc3ccccc3[nH]c2=O)c(=O)[nH]c(=O)n1Cc1ccccc1 [Compound 10b] | 6.46
CCn1c(N)c(/N=C/c2cc3cccc(C)c3[nH]c2=O)c(=O)[nH]c1=O [Compound 10f] | 6.85

### Prompt Param readout = pKi; param system = UniProt Q16790; param query = Cn1c(N)c(/N=C/c2cc3ccccc3[nH]c2=O)c(=O)[nH]c1=S [Compound 10e] ; response: value
### Response 6.12

### Prompt Param readout = pKi; param system = UniProt Q16790; param query = COc1ccc2[nH]c(=O)c(/C=N/c3c(N)n(C)c(=O)[nH]c3=O)cc2c1 [Compound 10k] ; response: value
### Response 6.15

### Prompt Param readout = pKi; param system = UniProt Q16790; param query = COc1ccc2[nH]c(=O)c(/C=N/c3c(N)n(C)c(=S)[nH]c3=O)cc2c1 [Compound 10l] ; response: value
### Response 7.10

----------
Quick note: these are pIC50 numbers for system: hCA I (Homo sapiens, UniProt P00915)
Sequence (P00915 whole entry): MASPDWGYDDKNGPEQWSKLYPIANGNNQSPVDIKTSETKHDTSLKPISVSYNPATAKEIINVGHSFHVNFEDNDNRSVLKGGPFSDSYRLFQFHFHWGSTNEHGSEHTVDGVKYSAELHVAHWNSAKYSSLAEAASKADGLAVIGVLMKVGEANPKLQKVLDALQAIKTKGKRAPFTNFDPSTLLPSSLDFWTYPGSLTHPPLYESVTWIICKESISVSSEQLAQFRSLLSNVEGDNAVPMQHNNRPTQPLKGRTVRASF
API: returns pIC50 as number; meaning -log10 of concentration in mol/L.

Use these answered entries as a reference point.
molecule | assay.readout | reading
Cc1cccc2cc(/C=N/c3c(N)n(C)c(=S)[nH]c3=O)c(=O)[nH]c12 [Compound 10g] | pIC50 | 5.67
Cn1c(N)c(/N=C/c2cc3ccccc3[nH]c2=O)c(=O)[nH]c1=O [Compound 10d] | pIC50 | 6.64
COc1ccc2[nH]c(=O)c(/C=N/c3c(N)[nH]c(=O)[nH]c3=O)cc2c1 [Compound 10h] | pIC50 | 5.49

Next molecule, please.
### Prompt Param readout = pIC50; param system = hCA I (Homo sapiens, UniProt P00915); param query = Nc1[nH]c(=O)[nH]c(=O)c1/N=C/c1cc2ccccc2[nH]c1=O [Compound 10a] ; response: value
### Response 6.01
